Source of measurements: PubChem BioAssay AID1159580

# Assay Details: chemical genetic growth profiling, strain panel (AID 1159580);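 also: tested at 20 µM; growth read once vehicle control cultures reached saturation at 30 °C; 1 = growth at the plate median or of vehicle wells; lower values mean less growth of the strain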
# Experimental Setup: S. cerevisiae deletion strains, growth OD, locus YCL061C, strain MRC1, active compounds read low
About 2,000 (36%) of roughly 5,500 compounds were called active. About 18% were inconclusive and are not listed. This is one part of the list.
The label is 1 for normalized growth below 1 and 0 for normalized growth equal to or exceeding 1.

Task item: Report whether reported normalized growth is lower than 1 (strictly) for O=[N+]([O-])c1ccc(OCCO)c([N+](=O)[O-])c1
Reply: 0

Task item: Report whether reported normalized growth is lower than 1 (strictly) for CCCCCCCCCCC[C@@H](C[C@H]1OC(=O)[C@H]1CCCCCC)OC(=O)[C@@H](CC(C)C)NC=O
Reply: 0

Task item: Report whether reported normalized growth is lower than 1 (strictly) for O=c1cccc2ccc(O)c(O)c2c1O
Reply: 1

----------
# Assay Details: chemical genetic growth profiling, strain panel (AID 1159580);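 also: tested at 20 µM; growth read once vehicle control cultures reached saturation at 30 °C; 1 = growth at the plate median or of vehicle wells; lower values mean less growth of the strain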
# Experimental Setup: S. cerevisiae deletion strains, growth OD, locus YJR075W, strain HOC1
Among all 5,500 compounds or so, about 2,000 (36%) were called active. Inconclusive results (about 18%) are left out. Rule as the data show it: active = normalized growth mostly below about 0.91 (no sharp cut-off); inconclusive = no clear call, values can overlap the other calls; inactive = mostly above about 0.92. The list shows a part of the results.
// one of active, inactive, no free text

Task item: Per the assay record, what outcome was assigned to O=C(OCC(O)CO)c1ccccc1Nc1ccnc2cc(Cl)ccc12 (stereo unspecified) ?
Reply: inactive

Task item: Per the assay record, what outcome was assigned to Nc1ncnc2c1ncn2C1OC2COP(O)(=S)O[C@@H]2[C@@H]1O (stereo partly specified) ?
Reply: inactive

Task item: Per the assay record, what outcome was assigned to C=C[C@@](C)(O)CCC1C(=C)CCC2[C@@](C)(CO)CCC[C@]12C (stereo partly specified) ?
Reply: inactive

Task item: Per the assay record, what outcome was assigned to O=C(O)CCCc1ccccc1 ?
Reply: inactive

Task item: Per the assay record, what outcome was assigned to OC1(c2ccc(F)cc2)Cc2ccccc2C2=NCCN21 (stereo unspecified) ?
Reply: inactive

Task item: Per the assay record, what outcome was assigned to C=C[C@@](C)(O)CCC1C(=C)C[C@H](OC(C)=O)C2C(C)(C)CCCC12C (stereo partly specified) ?
Reply: inactive

Task item: Per the assay record, what outcome was assigned to NC(Cc1ccc(N(CCCl)CCCl)cc1)C(=O)O (stereo unspecified) ?
Reply: inactive

Task item: Per the assay record, what outcome was assigned to C[n+]1c2cc(N)ccc2cc2ccc(N)cc21 ?
Reply: active

Task item: Per the assay record, what outcome was assigned to C=CC1(C)CC(=O)C2(O)C(C)(O1)C(OC(C)=O)C(O)C1C(C)(C)CCC(O)C12C (stereo unspecified) ?
Reply: inactive

Task item: Per the assay record, what outcome was assigned to C=C[C@@](C)(O)CCC1C(=C)C[C@H](O)C2C(C)(C)CCCC12C (stereo partly specified) ?
Reply: inactive

Task item: Per the assay record, what outcome was assigned to O=C(NNC(=S)Nc1cccc(Cl)c1)c1ccncc1 ?
Reply: inactive

----------
# Assay Details: chemical genetic growth profiling, strain panel (AID 1159580);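 also: tested at 20 µM; growth read once vehicle control cultures reached saturation at 30 °C; 1 = growth at the plate median or of vehicle wells; lower values mean less growth of the strain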
# Experimental Setup: S. cerevisiae deletion strains, growth OD, locus YLL026W, active compounds read low
Out of some 5,500 compounds screened, about 2,000 (36%) were called active. Roughly 18% stayed inconclusive and do not appear here. The list shows a part of the results.
Assay Metric: normalized growth
Kindly provide the number alone.

Consider COc1cc2nc(N(C)CCCNC(=O)C3CCCO3)nc(N)c2cc1OC (stereo not drawn) . Its measured normalized growth is 0.992

Consider C[C@H]1COc2c(N3CCN(C)CC3)c(F)cc3c(=O)c(C(=O)O)cn1c23 . Its measured normalized growth is 1.03

Consider COC(=O)[C@@H]1OC(=O)C2OC23[C@@]1(C)CCC1[C@]2(C)C(C[C@H](O)[C@]13C)C(C)(C)[C@H](OC(C)=O)C[C@@H]2OC(C)=O (stereo partly drawn) . Its measured normalized growth is 1.01

Consider CCn1cc(C(=O)O)c(=O)c2cc(F)c(N3CCNCC3)nc21 . Its measured normalized growth is 0.992

Consider O=C(O)c1cc2cc(F)ccc2[nH]1 . Its measured normalized growth is 0.996

Consider O=c1cccc2ccc(O)c(O)c2c1O . Its measured normalized growth is 0.913

Consider COC(=O)c1cc(=O)c(O)c2c(O)c(O)ccc2c1 . Its measured normalized growth is 0.994

Consider COc1c(N2CCNC(C)C2)c(F)cc2c(=O)c(C(=O)O)cn(C3CC3)c12 (stereo not drawn) . Its measured normalized growth is 0.985

Consider O=C1CCC(N2C(=O)c3ccccc3C2=O)C(=O)N1 (stereo not drawn) . Its measured normalized growth is 1.01

Consider O=C(/C=C/c1ccc(O)c(O)c1)OCCc1ccccc1 . Its measured normalized growth is 0.896

Consider C[C@]12CCC(=O)C=C1C=CC1C2CC[C@@]2(C)C1CC[C@@]21CCC(=O)O1 (stereo partly drawn) . Its measured normalized growth is 0.989

Consider Clc1ccc(C(c2ccc(Cl)cc2)C(Cl)(Cl)Cl)cc1 . Its measured normalized growth is 1.01

Consider C=CCCCCCCCCCCCc1ccco1 . Its measured normalized growth is 0.935

Consider O=C(O)/C=C/c1ccc(O)c(O)c1 . Its measured normalized growth is 0.992

Consider COc1ccc(C(c2ccc(OC)cc2)C(Cl)(Cl)Cl)cc1 . Its measured normalized growth is 1.02

Consider C#CCCCCCCCCCCCc1ccco1 . Its measured normalized growth is 0.982

Consider CNCCC(Oc1ccc(C(F)(F)F)cc1)c1ccccc1 (stereo not drawn) . Its measured normalized growth is 0.987

Consider C#CCN(C)Cc1ccccc1 . Its measured normalized growth is 1

Consider CC[C@@H](C(=O)C(C)[C@@H](O)[C@H](C)CCc1ccc(C)c(O)c1C(=O)O)C1OC(CC)(C2CC[C@](O)(CC)[C@H](C)O2)C[C@@H]1C (stereo partly drawn) . Its measured normalized growth is 1.06

Consider CCN(CC)C(=O)N1CCN(C)CC1 . Its measured normalized growth is 0.974

Consider O=C(/C=C/c1ccc(O)c(O)c1)OC(Cc1ccc(O)c(O)c1)C(=O)O (stereo not drawn) . Its measured normalized growth is 1.02

Consider C[C@]12CCC(=O)C=C1C=CC1C2CC[C@@]2(C)C1CC[C@@]2(O)CCC(=O)O (stereo partly drawn) . Its measured normalized growth is 1

Consider CCN1CCCC(OC(=O)C(c2ccccc2)c2ccccc2)C1 (stereo not drawn) . Its measured normalized growth is 0.992
